- System: Escherichia coli TOP10;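 note: peptides expressed intracellularly from a pBAD plasmid library in pooled LB shake-flask culture, induced with 0.3% L-arabinose, DNA abundance read by NGS, three biological replicates, DESeq2 with apeglm shrinkage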
- METHOD: shrunken log2 fold change of peptide-encoding DNA abundance (4.5 h post-induction vs induction); higher = less antimicrobial activity (less host growth inhibition)
- EXPERIMENTAL_SETUP: time post-induction: 4.5 h; library: site-saturation at positions 5, 18, 19, 20
Would you please tag the item Satisfied when its shrunken log2 fold change is -0.06 or above, and Not satisfied when it is below?

Past entries and their recorded results:
1) RRIRRRPPRLPRPRPRPQDCPRP; Not satisfied
2) RRIRCRPPRLPRPRPRPFEMPRP; Not satisfied
3) RRIRRRPPRLPRPRPRPEGIPRP; Satisfied
4) RRIRKRPPRLPRPRPRPYKSPRP; Not satisfied
5) RRIRSRPPRLPRPRPRPCKCPRP; Not satisfied

Next item in the queue.
In plain terms: is recorded shrunken log2 fold change at least -0.06 for RRIRTRPPRLPRPRPRPPCIPRP ?
Satisfied
